List of z-score values.
# PROCEDURE TEXT: S. cerevisiae growth modulation with rapamycin, primary screen, strain BY4716, OD600, 96 h (AID 1091); also: test concentration not given here
# ASSAY CONTEXT: higher = more signal, called active from +8 up or from −8 down
QUANTITY KIND: z-score

COMPOUND: COc1ccc(C#Cc2ccc3c(c2)[C@]2(C(=O)N3)[C@H](c3ccccc3OCCO)N3[C@H](c4ccccc4)[C@H](c4ccccc4)OC(=O)[C@H]3[C@@H]2C(=O)NC[C@H](O)c2ccccc2)cc1
QUANTITY KIND: z-score
OBS VALUE: 2.92
//
COMPOUND: C=C(C(=O)CC[C@H](OC(=O)c1ccccc1-c1ccccc1C(=O)O)c1ccc(OCCO)cc1)C(C)C
QUANTITY KIND: z-score
OBS VALUE: -1.28
//
COMPOUND: CCCCC(=C=CC[C@H](O)c1ccccc1OCCO)CCO
QUANTITY KIND: z-score
OBS VALUE: -0.34
//
COMPOUND: CC(C)N1CC=CC23O[C@@H]4/C=C\CCCOC(=O)C4[C@H]2C(=O)N(C(C)CO)[C@@H]3C1=O (some centres not stated)
QUANTITY KIND: z-score
OBS VALUE: -1.08
//
COMPOUND: C=C(C(=O)CC[C@@H](OC(=O)c1cccnc1)c1cccc(OCCO)c1)C(C)C
QUANTITY KIND: z-score
OBS VALUE: 1.04
//
COMPOUND: CCCCCN1CC=CC23O[C@@H]4/C=C\CCCOC(=O)C4[C@H]2C(=O)N(CCO)[C@@H]3C1=O (some centres not stated)
QUANTITY KIND: z-score
OBS VALUE: -1.46
//
COMPOUND: COCCOC(=O)N1C(=O)[C@@]2(c3cc(C#CCNC(N)=O)ccc31)[C@H](c1ccc(O)cc1)N1[C@H](c3ccccc3)[C@H](c3ccccc3)OC(=O)[C@H]1[C@@H]2C(=O)N1CCc2cc(OC)c(OC)cc2C1
QUANTITY KIND: z-score
OBS VALUE: 1.84

====

# System: Human papillomavirus type 1a E7 protein (residues 1-88)
# PROCEDURE TEXT: HPV1a E7 small-molecule binders, primary screen, biochemical, small-molecule microarray, residues 1-88, 635 nm (AID 1129)
# ASSAY CONTEXT: small-molecule microarray binding, fluorescence 635 nm; higher = more signal
# Lookup of reported composite z-score keyed by entry

SMILES STRING: C=C(COC)C(=O)CC[C@@H](OC(=O)c1ccccc1-c1ccccc1C(=O)O)c1ccccc1OCCO
composite z-score: 1.15
--
SMILES STRING: C=CCNC(=O)[C@@H]1[C@H]2C(=O)O[C@H](c3ccccc3)[C@H](c3ccccc3)N2[C@H](c2ccc(O)cc2)[C@@]12C(=O)N(C(=O)OCCOC)c1ccc(C#CCC(C(=O)OC)C(=O)OC)cc12
composite z-score: 1.19
--
SMILES STRING: Cc1cccc([C@H]2C[C@H]3C(Br)=C[C@@]2(CO)C(=O)[C@]32CO2)c1
composite z-score: -0.15
--
SMILES STRING: C=C(CC1([C@@H](NP(=O)(c2ccccc2)c2ccccc2)[C@H]2C[C@@H]2CCCC)CC1)c1cccc(OC)c1
composite z-score: 0.811

====

# ASSAY TARGET: Follistatin-related protein 3 (Homo sapiens) (UniProt O95633)
# Sequence (O95633 whole entry, looked up): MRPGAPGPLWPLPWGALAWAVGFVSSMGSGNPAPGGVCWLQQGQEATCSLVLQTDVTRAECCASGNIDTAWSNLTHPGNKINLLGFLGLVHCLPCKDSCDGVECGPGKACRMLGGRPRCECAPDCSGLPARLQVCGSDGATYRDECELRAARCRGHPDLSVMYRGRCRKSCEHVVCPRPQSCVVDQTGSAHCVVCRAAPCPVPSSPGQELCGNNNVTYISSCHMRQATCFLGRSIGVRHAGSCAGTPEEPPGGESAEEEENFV
# PROCEDURE TEXT: FSTL3 binders on small-molecule microarrays, primary screen, biochemical, small-molecule microarray, 635 nm fluorescence (AID 1105);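 also: score merges emission near 667 nm and signal to noise per printed spot across three slides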
# ASSAY CONTEXT: FSTL3 binding, higher = more signal
Tick True if composite z-score is 0.6 or greater. Tick False if composite z-score is less than 0.6.

MOLECULE: COC(=O)[C@H]1N=C(c2ccc(OCCCO)cc2)O[C@H]1c1ccccc1N=[N+]=[N-]
ASSAY TARGET: Follistatin-related protein 3 (Homo sapiens) (UniProt O95633)
LABEL VALUE: False
//
MOLECULE: COc1ccc(-c2cc3c(c(CCc4ccccc4)n2)[Si](C(C)C)(C(C)C)O[C@H]3c2ccccc2)cn1
ASSAY TARGET: Follistatin-related protein 3 (Homo sapiens) (UniProt O95633)
LABEL VALUE: False
//
MOLECULE: C=C(CCCC)C(=O)CC[C@@H](OC(C)=O)c1ccc(OCCO)cc1
ASSAY TARGET: Follistatin-related protein 3 (Homo sapiens) (UniProt O95633)
LABEL VALUE: True
//
MOLECULE: COCCOC(=O)N1C(=O)[C@@]2(c3cc(C#CCNC(N)=O)ccc31)[C@H](C(=O)N1CCN(c3ncccn3)CC1)[C@H]1C(=O)O[C@H](c3ccccc3)[C@H](c3ccccc3)N1[C@@H]2c1ccc(O)cc1
ASSAY TARGET: Follistatin-related protein 3 (Homo sapiens) (UniProt O95633)
LABEL VALUE: False
//
MOLECULE: CC(CO)N1C(=O)[C@@H]2[C@H]3C(=O)OCC=C[C@H]3OC23C=CCN(c2ccc4ccccc4c2)C(=O)[C@@H]13 (stereo not given in full)
ASSAY TARGET: Follistatin-related protein 3 (Homo sapiens) (UniProt O95633)
LABEL VALUE: False
//
MOLECULE: C=CCNC(=O)[C@@H]1[C@H]2C(=O)O[C@H](c3ccccc3)[C@H](c3ccccc3)N2[C@H](c2ccc(OCCO)cc2)[C@@]12C(=O)Nc1ccc(C#CCNC(N)=O)cc12
ASSAY TARGET: Follistatin-related protein 3 (Homo sapiens) (UniProt O95633)
LABEL VALUE: False
//
MOLECULE: [N-]=[N+]=NCc1ccccc1[C@H]1OC(c2ccc(OCCCO)cc2)=N[C@@]1(Cc1ccccc1N=[N+]=[N-])C(=O)O
ASSAY TARGET: Follistatin-related protein 3 (Homo sapiens) (UniProt O95633)
LABEL VALUE: True
//
MOLECULE: COC(=O)[C@@]1(Cc2ccc(F)cc2)[C@H]2c3cc(C(=O)N(C)C)n(CCF)c3C[C@H]2CN1C(=O)c1ccccc1
ASSAY TARGET: Follistatin-related protein 3 (Homo sapiens) (UniProt O95633)
LABEL VALUE: False
//
MOLECULE: O=C1NC(=O)C2C1C=CC(C(O)C(O)CO)N2Nc1ccccn1 (stereo not given)
ASSAY TARGET: Follistatin-related protein 3 (Homo sapiens) (UniProt O95633)
LABEL VALUE: False
//
MOLECULE: COC(=O)C(CC#Cc1ccc2c(c1)[C@]1(C(=O)N2)[C@H](C(=O)N2CCCCCCC2)[C@H]2C(=O)O[C@H](c3ccccc3)[C@H](c3ccccc3)N2[C@@H]1c1ccc(OCCO)cc1)C(=O)OC
ASSAY TARGET: Follistatin-related protein 3 (Homo sapiens) (UniProt O95633)
LABEL VALUE: True
//
MOLECULE: COc1ccc(CCNC(=O)[C@@]2(c3ccc([N+](=O)[O-])cc3)CC(=O)N(C3CCCCC3)[C@@H]2c2ccc(CO)cc2I)cc1
ASSAY TARGET: Follistatin-related protein 3 (Homo sapiens) (UniProt O95633)
LABEL VALUE: False
//
MOLECULE: CC(=O)NCCCC[C@@H]1NC(=O)[C@H]2C[C@@H](C(=O)NCCCCCN)[C@@H](c3ccc(O)cc3)N2C1=O
ASSAY TARGET: Follistatin-related protein 3 (Homo sapiens) (UniProt O95633)
LABEL VALUE: True
//
MOLECULE: Cc1ccc(S[C@]2(C(=O)NC(C)C)CC(=O)N(Cc3ccccc3)[C@@H]2c2ccc(CO)cc2)cc1
ASSAY TARGET: Follistatin-related protein 3 (Homo sapiens) (UniProt O95633)
LABEL VALUE: False
//
MOLECULE: CC(C)c1ccc(NN2C(C(O)C(C)c3ccccc3)C=CC3C(=O)N(c4ccccc4)C(=O)C32)cc1 (stereo not given)
ASSAY TARGET: Follistatin-related protein 3 (Homo sapiens) (UniProt O95633)
LABEL VALUE: True
